The values you see were collected from patent US11634404B2.

In this section we review reported IC50 values for a set of molecules.
# ASSAY TARGET: D2 DAR (Homo sapiens (Human))
# CONDITION SUMMARY: β-arrestin recruitment, antagonist
READOUT NAME: IC50

# CHEM SMILES, READOUT NAME, VALUE
rows = [
    ("COc1ccc(OCCN2CCN(C(=O)c3ccc(OC(F)(F)F)cc3)CC2)cc1", "IC50", "> 50 µM"),
    ("Cc1ccc(OCCN2CCN(C(=O)c3cc4ccccc4[nH]3)CC2)cc1", "IC50", "> 100 µM"),
    ("COc1ccc(OCCN2CCN(C(=O)C3CCCCC3)CC2)cc1", "IC50", "> 50 µM"),
    ("COc1ccc(OCCN2CCN(C(=O)c3cc4ccccc4n3C)CC2)cc1", "IC50", "16 µM"),
    ("COc1ccc(C(=O)N2CCN(CCOc3cccnc3)CC2)cc1", "IC50", "> 100 µM"),
    ("CCc1ccc(OCCN2CCN(C(=O)c3cc4ccccc4[nH]3)CC2)cc1", "IC50", "> 50 µM"),
    ("O=C(c1cc2ccccc2[nH]1)N1CCN(CCOc2ccncc2)CC1", "IC50", "> 100 µM"),
    ("COc1ccc(OCCN2CCN(C(=O)c3cc4cc(C)ccc4[nH]3)CC2)cc1", "IC50", "> 100 µM"),
    ("COc1ccc(OCCN2CCN(C(=O)c3ccccc3)CC2)cc1", "IC50", "> 50 µM"),
]

====

# ASSAY TARGET: D2 DAR (Homo sapiens (Human), UniProt P14416)
# Sequence (P14416 whole entry): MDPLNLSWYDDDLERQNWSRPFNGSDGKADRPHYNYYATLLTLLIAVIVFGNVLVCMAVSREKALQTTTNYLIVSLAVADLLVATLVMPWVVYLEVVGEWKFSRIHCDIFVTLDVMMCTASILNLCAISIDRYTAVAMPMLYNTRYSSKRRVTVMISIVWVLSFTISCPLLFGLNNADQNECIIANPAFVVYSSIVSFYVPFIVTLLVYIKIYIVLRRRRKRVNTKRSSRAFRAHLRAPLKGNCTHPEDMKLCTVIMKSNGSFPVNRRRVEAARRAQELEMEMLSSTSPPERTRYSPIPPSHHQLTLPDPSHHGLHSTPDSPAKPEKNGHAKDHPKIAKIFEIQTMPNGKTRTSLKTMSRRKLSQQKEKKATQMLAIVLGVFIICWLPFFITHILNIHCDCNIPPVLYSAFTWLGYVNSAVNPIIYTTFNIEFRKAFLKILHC
# Format: cell-based
# CONDITION SUMMARY: β-arrestin recruitment, agonist; 'curve' = wrapped cell 'curve interrupted'

# MOLECULE, D2 Emax
rows = [
    ("COc1ccc(OCCN2CCN(C(=O)c3cc4ccccc4o3)CC2)cc1 [Compound 62]", "none"),
    ("COc1ccc(OCCN2CCN(C(=O)c3cc4ccccc4n3C)CC2)cc1 [Compound 55]", "none"),
    ("O=C(c1cc2ccccc2[nH]1)N1CCN(CCOc2ccncc2)CC1 [Compound 107]", "none"),
    ("COc1ccc(OCC(C)N2CCN(C(=O)c3ccc(OC)cc3)CC2)cc1 (stereo not drawn) [Compound 111]", "none"),
    ("COc1ccc(C(=O)N2CCN(CCOc3ccc4c(c3)OCO4)CC2)cc1 [Compound 39]", "none"),
    ("COc1ccc(OCCN2CCN(C(=O)c3ccc(OC)cc3)CC2)cc1 [Compound 65]", "none"),
    ("COc1ccc(OCCN2CCN(C(=O)c3ccncc3)CC2)cc1 [Compound 43]", "none"),
    ("O=C(c1cc2ccccc2[nH]1)N1CCN(CCOc2ccc(F)cc2)CC1 [Compound 15]", "Curve"),
    ("COc1ccc(OCCN2CCN(C(=O)c3nc4ccccc4[nH]3)CC2)cc1 [Compound 60]", "none"),
    ("CCc1ccc(OCCN2CCN(C(=O)c3cc4ccccc4[nH]3)CC2)cc1 [Compound 98]", "none"),
    ("CCc1ccc(OCCN2CCN(C(=O)c3ccc(Cl)cc3)CC2)cc1 [Compound 36]", "none"),
    ("CCc1ccc(OCCN2CCN(C(=O)c3ccc(OC)cc3)CC2)cc1 [Compound 35]", "none"),
    ("COc1ccc(OCCN2CCN(CC(=O)c3cc4ccccc4[nH]3)CC2)cc1 [Compound 125]", "none"),
    ("COc1ccc(N(C)CCN2CCN(C(=O)c3cc4ccccc4[nH]3)CC2)cc1 [Compound 119]", "none"),
    ("O=C(c1cc2ccccc2[nH]1)N1CCN(CCOc2ccc(OC(F)(F)F)cc2)CC1 [Compound 96]", "curve"),
    ("O=C(c1cc2ccccc2[nH]1)N1CCN(CCOc2ccc([N+](=O)[O-])cc2)CC1 [Compound 103]", "none"),
    ("COc1ccc(C(=O)N2CCN(CCOc3ccc(OC)c(OC)c3)CC2)cc1 [Compound 38]", "none"),
    ("O=C(c1cc2ccccc2[nH]1)N1CCN(CCOc2ccc(F)cc2)CC1 [Compound 100]", "curve"),
    ("COc1ccc(OCCN2CCN(C(=O)c3ccc(OC)cn3)CC2)cc1 [Compound 44]", "curve"),
    ("COc1ccc(OCCN2CCN(C(=O)c3ccc(OC)cc3)CC2)cc1 [Compound 33]", "none"),
    ("COc1ccc(C(=O)N2CCN(c3ccc(OC)cc3)CC2)cc1 [Compound 114]", "none"),
    ("CCC(=O)N1CCN(CCOc2ccc(OC)cc2)CC1 [Compound 64]", "none"),
    ("COc1ccc(OCCN2CCN(C(=O)c3cc4ncccc4[nH]3)CC2)cc1 [Compound 59]", "curve"),
    ("COc1ccc(OCCN2CCN(C(=O)C3CCCCC3)CC2)cc1 [Compound 63]", "none"),
    ("O=C(c1cc2ccccc2[nH]1)N1CCN(CCOc2ccc(Cl)cc2)CC1 [Compound 101]", "none"),
    ("COc1ccc(OCCC2CCN(C(=O)c3cc4ccccc4[nH]3)CC2)cc1 [Compound 124]", "none"),
    ("COc1ccc(OCCN2CCN(C(=O)c3cc4cc(C)ccc4[nH]3)CC2)cc1 [Compound 49]", "curve"),
    ("COc1ccc(OCCN2CCN(C(=O)c3ccccc3OC)CC2)cc1 [Compound 42]", "none"),
    ("COc1ccc(OCCN2CCN(C(=O)c3cc4ccccc4[nH]3)CC2)c(Cl)c1 [Compound 105]", "curve"),
    ("O=C(c1cc2ccccc2[nH]1)N1CCN(CCOc2ccc(Br)cc2)CC1 [Compound 102]", "none"),
    ("CC(C)(C)c1ccc(OCCN2CCN(C(=O)c3cc4ccccc4[nH]3)CC2)cc1 [Compound 99]", "none"),
    ("CSc1cccc(OCCN2CCN(C(=O)c3cc4ccccc4[nH]3)CC2)c1 [Compound 93]", "none"),
    ("COc1ccc(OCCN2CCN(C(=O)c3cc4ccccc4[nH]3)CC2)cc1 [Compound 1]", "Curve"),
    ("COc1ccc(OCCC2CCN(C(=O)c3ccc(OC)cc3)CC2)cc1 [Compound 117]", "none"),
    ("CCOc1ccc(OCCN2CCN(C(=O)c3cc4ccccc4[nH]3)CC2)cc1 [Compound 95]", "none"),
    ("COc1ccc(OCCN2CCN(C(=O)c3ccccc3)CC2)cc1 [Compound 41]", "none"),
]

====

Entries annotated with measured pEC50
# ASSAY TARGET: D2 DAR (Homo sapiens (Human), UniProt P14416)
# CONDITION SUMMARY: β-arrestin recruitment, agonist
pEC50: −log10 of the molar value.

# MOLECULE, pEC50
measured = [
    ("COc1ccc(OCCN2CCN(C(=O)c3ccc4[nH]ccc4c3)CC2)cc1 [Compound 31]", 5.60),
    ("O=C(c1cc2ccccc2[nH]1)N1CCN(CCOc2ccccc2)CC1 [Compound 2]", 5.74),
    ("COc1ccc2[nH]c(C(=O)N3CCN(CCOc4cccnc4)CC3)cc2c1 [Compound 72]", 5.59),
    ("COc1ccc(OCCN2CCN(C(=O)c3cc4ccncc4[nH]3)CC2)cc1 [Compound 57]", 5.11),
    ("O=C(c1n[nH]c2ccccc12)N1CCN(CCOc2cccnc2)CC1 [Compound 7]", 5.39),
]

====

# ASSAY TARGET: D2 DAR (Homo sapiens (Human), UniProt P14416)
# CONDITION SUMMARY: β-arrestin recruitment, agonist
READOUT NAME: EC50

# COMPOUND, VALUE
rows = [
    ("Cn1c(C(=O)N2CCN(CCOc3cccnc3)CC2)cc2ccccc21 [Compound 81]", "6.2 µM"),
    ("Cc1ccc(OCCN2CCN(C(=O)c3cc4ccccc4[nH]3)CC2)cc1", "> 50 µM"),
    ("O=C(c1cc2c(Cl)cccc2[nH]1)N1CCN(CCOc2cccnc2)CC1 [Compound 18]", "0.217 µM"),
    ("COc1ccc(OCCN2CCN(C(=O)c3ccc(OC)cn3)CC2)cc1", "> 50 µM"),
    ("O=C(c1cc2cccc(Cl)c2[nH]1)N1CCN(CCOc2cccnc2)CC1 [Compound 77]", "0.617 µM"),
    ("COc1ccc(C(=O)N2CCN(CCOc3ccc4c(c3)OCO4)CC2)cc1", "7.4 µM"),
    ("O=C(c1cc2ccccc2[nH]1)N1CCN(CCOc2ccc(F)cc2)CC1 [Compound 15]", "> 50 µM"),
    ("O=C(c1cc2ccccc2[nH]1)N1CCN(CCOc2ccc(F)cc2)CC1 [Compound 100]", "> 50 µM"),
]

====

# ASSAY TARGET: D2 DAR (Homo sapiens (Human), UniProt P14416)
# CONDITION SUMMARY: β-arrestin recruitment, agonist
pEC50: −log10 of the molar value.
Measured pEC50 by item

# COMPOUND, MEASUREMENT QUALIFIER, pEC50
records = [
    ("COc1ccc(OCCN2CCN(C(=O)C3Cc4c(cccc4OC)N3)CC2)cc1 (stereo not drawn)", "=", 5.28),
    ("COc1ccc(OCCN2CCN(C(=O)c3cc4cc(C)ccc4[nH]3)CC2)cc1", "<", 4.30),
    ("COc1cccc(OCCN2CCN(C(=O)c3cc4cccnc4[nH]3)CC2)c1 [Compound 11]", "=", 6.89),
    ("COc1cccc(OCCN2CCN(C(=O)c3cc4cc(OC)ccc4[nH]3)CC2)c1 [Compound 29]", "=", 5.77),
    ("O=C(c1cc2ccccc2o1)N1CCN(CCOc2cccnc2)CC1 [Compound 10]", "=", 5.77),
    ("Cn1c(C(=O)N2CCN(CCOc3cccnc3)CC2)cc2ccccc21 [Compound 27]", "=", 5.21),
    ("COc1ccc(C(=O)N2CCN(CCOc3cccnc3)CC2)cc1", "=", 5.54),
    ("COc1ccc(OCCN2CCN(C(=O)c3cc4ccccc4[nH]3)CC2)c(Cl)c1", "<", 4.30),
    ("O=C(c1ccc[nH]1)N1CCN(CCOc2cccnc2)CC1", "=", 5.21),
    ("COc1ccc(OCCN2CCN(C(=O)c3cc4cnccc4[nH]3)CC2)cc1", "=", 5.26),
    ("COc1ccc2[nH]c(C(=O)N3CCN(CCOc4cccnc4)CC3)cc2c1 [Compound 28]", "=", 5.59),
    ("O=C(c1cc2ccccc2[nH]1)N1CCN(CCOc2cncc(Cl)c2)CC1 [Compound 13]", "=", 6.10),
    ("COc1ccc(OCCN2CCN(C(=O)c3cc4cccc(OC)c4[nH]3)CC2)cc1", "=", 5.22),
    ("O=C(c1cc2c(Cl)cccc2[nH]1)N1CCN(CCOc2cccnc2)CC1 [Compound 80]", "=", 6.66),
    ("O=C(c1cc2cccc(Cl)c2[nH]1)N1CCN(CCOc2cccnc2)CC1 [Compound 21]", "=", 6.21),
    ("COc1ccc(OCCN2CCN(C(=O)c3cc4ncccc4[nH]3)CC2)cc1", "<", 4.00),
    ("O=C(c1cc2ccccc2o1)N1CCN(CCOc2cccnc2)CC1 [Compound 88]", "=", 5.77),
    ("O=C(c1nc2ccccc2[nH]1)N1CCN(CCOc2cccnc2)CC1", "=", 5.62),
    ("COc1ccc(C(=O)N2CCN(CCOc3cccnc3)CC2)c(C)c1", "=", 5.34),
    ("O=C(c1cc2ccc(Cl)cc2[nH]1)N1CCN(CCOc2cccnc2)CC1 [Compound 78]", "=", 6.74),
    ("O=C(c1cc2ccccc2[nH]1)N1CCN(CCOc2cccnc2)CC1", "=", 6.00),
    ("COc1ccc(OCCN2CCN(S(=O)(=O)c3ccc(OC)cc3)CC2)cc1", "<", 4.00),
    ("COc1ccc(OCCN2CCN(C(=O)c3cc4cccc(C)c4[nH]3)CC2)cc1", "=", 5.00),
    ("O=C(c1cc2cc(Cl)ccc2[nH]1)N1CCN(CCOc2cccnc2)CC1 [Compound 79]", "=", 5.85),
    ("Cc1cccc2[nH]c(C(=O)N3CCN(CCOc4cccnc4)CC3)cc12 [Compound 76]", "=", 6.74),
    ("COc1cccc(OCCN2CCN(C(=O)c3cc4cc(OC)ccc4[nH]3)CC2)c1 [Compound 67]", "=", 5.77),
    ("COc1cccc(OCCN2CCN(C(=O)c3cc4cccnc4[nH]3)CC2)c1 [Compound 68]", "=", 6.89),
    ("O=C(c1cc2cc(Cl)ccc2[nH]1)N1CCN(CCOc2cccnc2)CC1 [Compound 19]", "=", 5.85),
    ("O=C(c1cc2ccccc2[nH]1)N1CCN(CCOc2ccc(OC(F)(F)F)cc2)CC1", "<", 4.00),
    ("COc1ccc(OCCN2CCN(C(=O)c3cc4c(Cl)cccc4[nH]3)CC2)cc1", "=", 5.15),
    ("Cc1cccc2[nH]c(C(=O)N3CCN(CCOc4cccnc4)CC3)cc12 [Compound 24]", "=", 6.74),
    ("O=C(c1cc2ccccc2[nH]1)N1CCN(CCOc2cncc(Cl)c2)CC1 [Compound 108]", "=", 6.10),
    ("Cc1ccc2[nH]c(C(=O)N3CCN(CCOc4cccnc4)CC3)cc2c1 [Compound 25]", "=", 5.89),
    ("O=C(c1cc2ccc(Cl)cc2[nH]1)N1CCN(CCOc2cccnc2)CC1 [Compound 17]", "=", 6.74),
    ("COc1ccc(OCCN2CCN(C(=O)c3cc4cc(OC)ccc4[nH]3)CC2)cc1", "=", 5.11),
    ("Cc1ccc2[nH]c(C(=O)N3CCN(CCOc4cccnc4)CC3)cc2c1 [Compound 75]", "=", 5.89),
]
